Entries and their growth inhibition values follow.
# experiment: NCI Yeast Anticancer Drug Screen. Data for the mlh1 strain (AID 171);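 note: 0% = growth of vehicle-treated control cultures of the same strain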
# measurementContext: S. cerevisiae mlh1 strain growth inhibition; at 100.0 µM; hits give high values
About 79,000 compounds went through this panel and 15% of them were active in at least one assay; those are over-represented in the sample as a whole. Activity calls are given as the source filed them. Cut-off read from the data, not from the text of the source: active = growth inhibition above about 70%; inactive = the rest.

Recorded growth inhibition, per entry:
compound	growth inhibition
CN1C(=O)c2ccc3ccccc3c2C1=O	27% (inactive)
Cc1c2cccc(Sc3ccccc3)c2c2c3c(cccc13)[S+](c1ccccc1)C2 (stereo not given)	93% (active)
O=[N+]([O-])c1ccc2c(c1)/C(=N/N=C1c3ccccc3Cc3ccccc31)c1cc([N+](=O)[O-])cc([N+](=O)[O-])c1-2	93% (active)
C=C(Cl)COC(=O)Nc1cccc(Cl)c1	97% (active)
O=C(C[n+]1ccc2ccccc2c1)c1ccc2ccccc2c1	97% (active)

Query block: Fill in the blank: the reported growth inhibition of CC(C)(CCCCC(C)(C)[N+](C)(C)C)[N+](C)(C)C is ____.
Result block: -1% (inactive)

Query block: Fill in the blank: the reported growth inhibition of CCCOC(=O)C(F)C(Br)C(=O)OCCC (stereo not given) is ____.
Result block: 99% (active)

Query block: Fill in the blank: the reported growth inhibition of Nc1ncnc2c1ncn2C1OC(CO)CC1O (stereo not given) is ____.
Result block: 91% (active)

Query block: Fill in the blank: the reported growth inhibition of S=c1sc2c(s1)SCCS2 is ____.
Result block: 3% (inactive)

Query block: Fill in the blank: the reported growth inhibition of COc1nc2c(c(=O)n1C)N=C(c1ccccc1)[C@H](C(CC(=O)c1ccccc1)c1ccccc1)C(c1ccccc1)N2 (stereo not given in full) is ____.
Result block: 60% (inactive)

---

# experiment: NCI Yeast Anticancer Drug Screen. Data for the rad50 strain (AID 155);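 note: 0% = growth of vehicle-only cultures of the same strain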
# measurementContext: S. cerevisiae rad50 strain growth inhibition; at 1.2 µM; hits give high values
This is part of a sample that, as a whole, favours compounds with a hit. Of some 79,000 tested, about 15% had one in any assay.
Entries and their growth inhibition values follow.
Just the number in %, nothing appended.

Recorded growth inhibition, per entry:
molecule	growth inhibition, %
O=[N+]([O-])c1cc(S(=O)(=O)Nc2ccccc2)ccc1Nc1ccccc1	11
Cc1c2cccc(Sc3ccccc3)c2c2c3c(cccc13)[S+](c1ccccc1)C2 (stereo not given)	25
CC(=O)Nc1ccc2c(c1)-c1ccccc1C2=O	-2

Query block: Fill in the blank: the reported growth inhibition of COc1cc([C@@H]2c3cc4c(cc3[C@@H](Nc3ccc(NC(=O)c5cc([N+](=O)[O-])cn5C)cc3)[C@H]3COC(=O)[C@H]23)OCO4)cc(OC)c1O is ____.
Result block: 11

Query block: Fill in the blank: the reported growth inhibition of CC[N+]1(C)CCC(O)(c2ccc(OC)cc2)C(C(=O)c2ccc(OC)cc2)C1 (stereo not given) is ____.
Result block: -24

---

# experiment: NCI Yeast Anticancer Drug Screen. Data for the mec2-1 strain (AID 157)
# measurementContext: S. cerevisiae mec2-1 strain, at 11.0 µM, hits give high values
Compounds without any hit were thinned out: in the full panel of roughly 79,000, 15% have a hit.
Entries and their growth inhibition values follow.
Just the number in %, nothing appended.

Recorded growth inhibition, per entry:
molecule	unitText	measuredValue
C/C(=N\Nc1ccc([N+](=O)[O-])cc1[N+](=O)[O-])c1sc(-n2nc(-c3ccccc3)cc2-c2ccccc2)nc1C	%	15
C[C@]12CC[C@H](O)CC1=CC[C@@H]1C2CC[C@]2(C)C(=O)NC(=O)CC12 (some centres not stated)	%	-27
COC(=O)CC1CCc2c(ccc3ccccc23)C1(C)C(=O)OC (configuration not stated)	%	-2
COC1CCC(O)C(/C=C/[N+](=O)[O-])C1 (configuration not stated)	%	100
CC(C)C(C)/C=C\C(C)C1CCC2C3=CC=C4CC(O)CCC4(C)C3CCC21C (configuration not stated)	%	-2
Oc1ccc(-c2nc(-c3ccc(F)cc3)c(-c3ccc4ccccc4n3)[nH]2)cc1	%	69
CC(C)(C)[Si](C)(C)OCC1CCC(n2cnc3c(NC(=O)c4ccccc4)ncnc32)O1 (configuration not stated)	%	-1
CCC1(OC(=O)CN2CCN(CCO)CC2)C(=O)OCc2c1cc1n(c2=O)Cc2cc3ccccc3nc2-1 (configuration not stated)	%	-12

Query block: Fill in the blank: the reported growth inhibition of CC1OC(O[C@H]2/C=C/C=C/C=C/C=C/C=C/C=C/C=C/[C@H](C)[C@@H](O)[C@@H](C)[C@H](C)OC(=O)C[C@H](O)C[C@H](O)CC[C@@H](O)[C@H](O)C[C@H](O)C[C@]3(O)C[C@H](O)[C@@H](C(=O)O)[C@H](C2)O3)C(O)C(N)C1O (some centres not stated) is ____.
Result block: 98

Query block: Fill in the blank: the reported growth inhibition of NC1=NNC2(C(N)=N1)c1ccccc1-c1ccccc12 is ____.
Result block: 11

Query block: Fill in the blank: the reported growth inhibition of COc1ccc2c(c1)n([O-])c1ccccc1[n+]2=O is ____.
Result block: 19

Query block: Fill in the blank: the reported growth inhibition of COc1ccc(C(NCCNC(c2ccc(OC)c(OC)c2)c2cc3c(cc2O)OCO3)c2cc3c(cc2O)OCO3)cc1OC (configuration not stated) is ____.
Result block: 9

Query block: Fill in the blank: the reported growth inhibition of CCCC(=O)Oc1ccc(/C=N/NC(N)=S)nc1 is ____.
Result block: -4

Query block: Fill in the blank: the reported growth inhibition of O=C(NO)Nc1cc(Cl)cc(Cl)c1 is ____.
Result block: 99

Query block: Fill in the blank: the reported growth inhibition of CCCCCCCCCCCCCCCCOP(=O)(O)OCC(N)C(=O)O (configuration not stated) is ____.
Result block: 50

Query block: Fill in the blank: the reported growth inhibition of CCCCC/C(=C(\C#N)C(=O)OCC)c1ccccc1 is ____.
Result block: -3

Query block: Fill in the blank: the reported growth inhibition of Cc1ccc2nc(-c3cccc([N+](=O)[O-])c3)oc(=O)c2c1 is ____.
Result block: -62

Query block: Fill in the blank: the reported growth inhibition of CCOc1ccccc1N=Cc1c2ccccc2cc2ccccc12 is ____.
Result block: 98

Query block: Fill in the blank: the reported growth inhibition of Oc1ccc2ccccc2c1CCc1c(O)ccc2ccccc12 is ____.
Result block: 95

Query block: Fill in the blank: the reported growth inhibition of CC(=O)Nc1ccc2c(c1)Cc1cc(N=C3C=CC(=O)O3)ccc1-2 is ____.
Result block: 89

Query block: Fill in the blank: the reported growth inhibition of CC(=O)SC(C[N+](=O)[O-])c1ccccc1 (configuration not stated) is ____.
Result block: 52

Query block: Fill in the blank: the reported growth inhibition of CNC(=O)OCc1c(COC(=O)NC)c2n(c1C)-c1ccc(OC)cc1CCC2 is ____.
Result block: -52

Query block: Fill in the blank: the reported growth inhibition of CN(C)CCOC1(Cc2ccc(Cl)cc2Cl)CCC(C(C)(C)C)CC1 (configuration not stated) is ____.
Result block: 99

Query block: Fill in the blank: the reported growth inhibition of O=[N+]([O-])c1cc(S(=O)(=O)Nc2ccccc2)ccc1Nc1ccccc1 is ____.
Result block: 93

Query block: Fill in the blank: the reported growth inhibition of CCCCNC1CCC2(SCCS2)c2[nH]c3ccccc3c21 (configuration not stated) is ____.
Result block: -2

Query block: Fill in the blank: the reported growth inhibition of COc1ccc(/C=C2\NC(=S)N(/C=C3\C(=O)Oc4ccccc4C3=O)C2=O)cc1 is ____.
Result block: 3

Query block: Fill in the blank: the reported growth inhibition of CC(=O)ON=C1C=CC(=C(C#N)c2ccc(Cl)cc2)C=C1 is ____.
Result block: 1
